Numbers sourced from patent US20250320228A1.

Tested on: HPK1 pSLP76 (Ser376)
Test: Cellular assay phospho-SLP-76 (Ser376)
Type: cell-based, human
Details: SLP76 Ser376 phosphorylation after αCD3/αCD28 stimulation; Jurkat (human) or EL-4 (mouse) cells, table does not say which; read-out: HPK1 pSLP76 IC50
pIC50: −log10 of the molar value.
Reported Property: pIC50

- NC(=O)c1cc(-c2ccc(OCCCN3CCOCC3)cc2)nc2c(N[C@H]3CCCNC3)ncnc12 [Example 52]: > 6.30
- CCn1ncc(-c2cc(C(N)=O)c3ncnc(N[C@@H]4CNC[C@@H](F)C4)c3n2)c1C [Example 8]: > 6.30
- CC(=O)c1ccc(-c2cc(C(N)=O)c3ncnc(N[C@@H]4CNC[C@@H](F)C4)c3n2)s1 [Example 5]: > 6.30

Prompt: For HPK1 pSLP76 (Ser376), provide pIC50 of NC(=O)c1cc(-c2cc(F)c(OCC3(O)CCOCC3)c(F)c2)nc2c(N[C@H]3CCCNC3)ncnc12 [Example 43] please.
Response: > 6.30
